All figures here come from patent US20260116991A1.

system-tested: T1, polypeptide GC3pep (human)
T1 construct: also called membrane proximal polypeptide GC3pep
T1 peptide: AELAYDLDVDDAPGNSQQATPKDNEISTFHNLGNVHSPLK
method: ELISA, GC3pep coated, antibody 0.01 nM;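 also: bound antibody detected with an HRP-conjugated secondary antibody and TMB substrate, color reaction stopped with HCl before reading absorbance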
recorded-metric: OD450 nm

Bench note: what OD450 nm did F4.21.16 (antibody, human IgG1, kappa, V domains shown, human-murine chimeric antibody) VH: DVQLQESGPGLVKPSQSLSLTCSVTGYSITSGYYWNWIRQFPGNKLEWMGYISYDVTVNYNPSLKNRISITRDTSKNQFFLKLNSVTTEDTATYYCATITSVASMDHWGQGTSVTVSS VL: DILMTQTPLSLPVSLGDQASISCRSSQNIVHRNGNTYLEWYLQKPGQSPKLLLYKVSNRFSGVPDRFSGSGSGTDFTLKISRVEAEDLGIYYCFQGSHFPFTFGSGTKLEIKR show? 0.04 OD450 nm
